Recorded IC50 by entry
system: HCT-116 MTAP wild-type cells; assay: Inhibition of proliferation of HCT-116 MTAP wild-type cells (Cell-Titer Glo); type: cell-based; settings: Homo sapiens, HCT-116, 192 h, 8 days
Response body: numeric value in nM, unit text excluded.

>  <compound>
C[C@H]1OC[C@@H](N(C)C(=O)c2ccc3nc(N)c4cncn4c3c2)c2ccc(F)cc21 (single isomer, unassigned) [Example 96]

>  <IC50 [nM]>
1260

$$$$

Value lookup for IC50; key = CN(C(=O)c1ccc2nc(N)c3cncn3c2c1)[C@@H]1COc2cc(F)ccc21 [Example 68]
8570

// query: CC1OC[C@@H](N(C)C(=O)c2ccc3nc(N)c4cncn4c3c2)c2cc(C(F)(F)F)ccc21 (stereo partly drawn) [Example 19]
2230

# iterate: CC1OC[C@@H](N(C)C(=O)c2ccc3nc(N)c4cncn4c3c2)c2ccc(F)cc21 (stereo partly drawn) [Example 9]
2140

Can you handle CN(C(=O)c1ccc2nc(N)c3cc(F)cn3c2c1)[C@@H]1COc2cc(C(F)(F)F)ccc21 [Example 42] next?
5460

Here is the next compound: CN(C(=O)c1ccc2nc(N)c3cncn3c2c1)[C@H]1COc2cc(C(F)(F)F)ccc21 [Example 51]
5860

Ok, now N#Cc1ccc2c(c1)OCC2N(C(=O)c1ccc2nc(N)c3cncn3c2c1)C1CC1 (stereo not drawn) [Example 65]
5950

Also need Cc1ncc2c(N)nc3ccc(C(=O)N(C)[C@@H]4COc5cc(C(F)(F)F)ccc54)cc3n12 [Example 39] , thanks.
2040

Check Cc1ncn2c1c(N)nc1ccc(C(=O)N(C)[C@@H]3COc4cc(C(F)(F)F)ccc43)cc12 [Example 6] too.
993

Ok, now C[C@H]1OC[C@@H](N(C)C(=O)c2cc3c(cn2)nc(N)c2cncn23)c2ccc(C(F)(F)F)cc21 (single isomer, unassigned) [Example 98]
114

What would you report for Cc1ncn2c1c(N)nc1ccc(C(=O)N(C3CC3)[C@H]3COc4cc(C(F)(F)F)ccc43)cc12 (single isomer, unassigned) [Example 85] ?
781

Field entry: CN(C(=O)c1cc2c(cc1F)nc(N)c1cncn12)[C@@H]1COc2cc(-c3cnn(C(F)(F)F)c3)ccc21 [Example 33]
2660

----------
assay: Mouse brain penetration pharmacokinetics study (plasma and brain); format: in vivo, ICR male mice; settings: male, ICR, mouse, brain and plasma, po, 30 mg/kg, ICR male mice, PO(30mg/kg), sampling time 24 h, individual animals; read-out: B/P ratio
reported.property: Kp at 24 h
Please give only the number in your answer, with no unit.

Fill in: Kp at 24 h of CN(C(=O)c1ccc2nc(N)c3cncn3c2c1)[C@@H]1COc2cc(C(F)(F)F)ccc21 is ___
0.237

----------
test: Mouse brain penetration pharmacokinetics study (plasma and brain); type: in vivo, ICR male mice; settings: male, ICR, mouse, plasma, po, 100 mg/kg, ICR male mice, PO(100mg/kg), sampling time 24 h, individual animals; read-out: Plasma concentration
reported.property: concentration at 24 h
Quick note: number first, unit second.

Give the measured concentration at 24 h of CN(C(=O)c1ccc2nc(N)c3cncn3c2c1)[C@@H]1COc2cc(C(F)(F)F)ccc21 .
1330 ng/mL

----------
Tested on: LN18 MTAP-overexpressing cells
Test: Inhibition of proliferation of LN18 MTAP-overexpressing cells (CellTiter-Glo)
Format: cell-based
Details: Homo sapiens, LN-18, 168 h, cell proliferation, 7 days
Description: Test 6: Assay for Inhibitory Activity of Compounds against LN18 MTAP-Overexpressing Cell Proliferatio Materials and Cells: The LN18 MTAP-overexpressing cell line was purchased from Cobioer Biosciences (China). […] Cell Proliferation Inhibition Assay: The antiproliferative activity of the compounds against LN18 MTAP-overexpressing cells was assessed using the CellTiter-Glo assay kit. […]
reported.property: IC50 (nM)
// note: answer is a bare numeric in nM

>  <compound>
[2H]C([2H])([2H])N(C(=O)c1ccc2nc(N)c3cncn3c2c1)[C@@H]1COc2cc(C(F)(F)F)ccc21 [Example 16]

>  <study.system>
LN18 MTAP-overexpressing cells

>  <test.result>
1200

$$$$
>  <compound>
[2H]C([2H])([2H])N(C(=O)c1cc2c(cc1F)nc(N)c1cncn12)[C@@H]1COc2cc(C(F)(F)F)ccc21 [Example 41]

>  <study.system>
LN18 MTAP-overexpressing cells

>  <test.result>
1970

$$$$
>  <compound>
CN(C(=O)c1cc2c(cc1C#N)nc(N)c1cncn12)[C@@H]1COc2cc(C(F)(F)F)ccc21 [Example 14]

>  <study.system>
LN18 MTAP-overexpressing cells

>  <test.result>
898

$$$$
>  <compound>
CN(C(=O)c1ccc2nc(N)c3cncn3c2c1)[C@@H]1COc2cc(C(F)(F)F)ccc21 [Example 107]

>  <study.system>
LN18 MTAP-overexpressing cells

>  <test.result>
1370

$$$$

Turning to the following compound.
// IC50 lookup, key: CN(C(=O)c1cc2c(cn1)nc(N)c1cncn12)[C@@H]1COc2cc(C(F)(F)F)ccc21 [Example 4]
868
